Documented kon across a set of binders
- TESTED TARGET: human serum albumin (HSA) (human)
- PROTOCOL SUMMARY: SPR Biacore T200, fusion protein captured by anti-VHH antibody, albumin as analyte
Express it in M⁻¹ s⁻¹; write the number only.

* 0065 (other, Single-chain fusion: anti-HSA VHH, linker, relaxin-2 B chain, linker, relaxin-2 A chain; also called fusion protein 0065) EVQLLESGGGLVQPGGSLRLSCAASGFTFLTSCMGWFRQAPGKEREGVSSIYTVGGSTFYTNSVKGRFTISRDNSKNTLYLQMNSLRPEDTAVYYCAAGSPARCRLRDPTTFDYWGQGTLVTVSSGGGGQGGGGQGGGGQGGGGQGGGGQSWMEEVIKLCGRELVRAQIAICGMSTWSGGGSGGSGGGQLYSALANKCCHVGCTKRSLARFC | 82300
* 0064 (other, Single-chain fusion: anti-HSA VHH, linker, relaxin-2 B chain, linker, relaxin-2 A chain; also called fusion protein 0064) EVQLLESGGGLVQPGGSLRLSCAASGNTYLTSCMGWFRQAPGKEREGVSSIYTVGGSTFYTNSVKGRFTISRDNSKNTLYLQMNSLQPEDTAVYYCAAGSPARCRLRDPTTFDYWGQGTLVTVSSGGGGQGGGGQGGGGQGGGGQGGGGQSWMEEVIKLCGRELVRAQIAICGMSTWSGGGSGGSGGGQLYSALANKCCHVGCTKRSLARFC | 154000
* 0054 (other, also called positive control 0054; positive control molecule 0054) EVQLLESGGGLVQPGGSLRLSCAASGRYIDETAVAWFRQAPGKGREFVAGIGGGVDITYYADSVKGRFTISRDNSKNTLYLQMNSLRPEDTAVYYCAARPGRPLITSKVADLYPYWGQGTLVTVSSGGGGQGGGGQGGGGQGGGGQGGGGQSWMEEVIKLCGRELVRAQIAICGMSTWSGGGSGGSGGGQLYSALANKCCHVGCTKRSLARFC | 35700
* 0052 (other, Single-chain fusion: anti-HSA VHH, linker, relaxin-2 B chain, linker, relaxin-2 A chain; also called fusion protein 0052) EVQLLESGGGLVQPGGSLRLSCAASGFTFLTSCMGWFRQAPGKEREGVSSIYTVGGSTFYTNSVKGRFTISRDNSKNTLYLQMNSLRAEDTAVYYCAAGSPARCRLRDPTTFDYWGQGTLVTVSSPGPAPGPAPGPAPGPAPGPAPGPAPGPAPGPASWMEEVIKLCGRELVRAQIAICGMSTWSGGGSGGSGGGQLYSALANKCCHVGCTKRSLARFC | 89900

// lookup kon for 0051 (other, Single-chain fusion: anti-HSA VHH, linker, relaxin-2 B chain, linker, relaxin-2 A chain; also called fusion protein 0051; molecule 0051) EVQLLESGGGLVQPGGSLRLSCAASGFTFLTSCMGWFRQAPGKEREGVSSIYTVGGSTFYTNSVKGRFTISRDNSKNTLYLQMNSLRAEDTAVYYCAAGSPARCRLRDPTTFDYWGQGTLVTVSSGGGGQGGGGQGGGGQGGGGQGGGGQSWMEEVIKLCGRELVRAQIAICGMSTWSGGGSGGSGGGQLYSALANKCCHVGCTKRSLARFC 54500
